These data points were gathered from PubChem BioAssay.

target: Pro-neuregulin-1, membrane-bound isoform (Homo sapiens); assay: NRG1 binders on small-molecule microarrays, primary screen, psychiatric disease protein project, biochemical, small-molecule microarray, fluorescence 635/667 (AID 1075); conditions: NRG1 binding, 635 nm fluorescence, higher = more signal;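 further: score combines 667 nm spot fluorescence with signal to noise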
Threshold rule: composite z-score greater than or equal to 0.8 is Met; below that, Not met.

- COCCOC(=O)N1C(=O)[C@@]2(c3cc(C#CCNC(N)=O)ccc31)[C@H](c1ccccc1OCCO)N1[C@H](c3ccccc3)[C@H](c3ccccc3)OC(=O)[C@H]1[C@@H]2C(N)=O: Not met
- O=C1C[C@@](C(=O)NC2CC2)(c2ccc([N+](=O)[O-])cc2)[C@@H](c2ccc(CO)cc2)N1CC12CC3CC(CC(C3)C1)C2: Not met
- C=CCNC(=O)[C@@H]1[C@H]2C(=O)O[C@H](c3ccccc3)[C@H](c3ccccc3)N2[C@H](c2ccccc2OCCO)[C@@]12C(=O)Nc1ccc(C#CC3=CCCCC3)cc12: Met
- COC(=O)[C@@]1(Cc2ccccc2)[C@H]2c3cc(C(=O)N(C)C)n(Cc4cc(C)n(C)n4)c3C[C@H]2CN1C(=O)c1ccccc1: Met
- O=C(O)[C@@]1(Cc2ccccc2)N=C(c2ccc(OCCCO)cc2)O[C@H]1c1ccccc1: Met
